Measured values drawn from ChEMBL document CHEMBL1146087 for this set.

- measurement.protocol: Apparent oral clearance in Sprague-Dawley rat at 2 mg/kg, po
- Assay type: ADME, organism-based
- Design: dose 2 mg/kg, route oral
- condition.context: in vivo
readout.type: CL/F (mL/min/kg)
Report only the number, with the unit mL/min/kg understood.

# lookup: CL/F of CC(=O)NC1N=C(c2ccccc2)c2ccccc2NC1=O (stereo unspecified)
4.9

* * *

Below, each entry is listed with its recorded pIC50.
- System: Respiratory syncytial virus
- measurement.protocol: Antiviral activity against RSV Long in Hep2 cells by ELISA
- Type: functional, organism-based
- condition.context: human respiratory syncytial virus, HEp-2
Note on pIC50: it is the negative log10 of concentration, concentration in mol/L.

Example results:
>  <compound>
COc1cc([N+](=O)[O-])ccc1C(=O)NC1N=C(c2ccccc2)c2ccccc2NC1=O (stereo not drawn)

>  <experimental.system>
Respiratory syncytial virus

>  <data.value>
5.92

$$$$
>  <compound>
CC(=O)NC1N=C(c2ccccc2)c2ccccc2NC1=O (stereo not drawn)

>  <experimental.system>
Respiratory syncytial virus

>  <data.value>
4.75

$$$$

In the following, a different compound is considered.
Reported pIC50, compound O=C(Nc1ccccc1F)NC1N=C(c2ccccc2)c2ccccc2NC1=O (stereo not drawn) : ____
5.60

* * *

- measurement.protocol: Tmax in Sprague-Dawley rat at 2 mg/kg, po
- Assay type: ADME, organism-based
- Set-up: dose 2 mg/kg, route oral
- condition.context: in vivo
readout.type: Tmax (h)
Express it in h; write the number only.

Some solved cases for reference:
>  <molecule>
O=C(Nc1ccccc1F)NC1N=C(c2ccccc2)c2ccccc2NC1=O (stereo not drawn)

>  <units.text>
h

>  <Tmax>
2.6

$$$$
>  <molecule>
CC(=O)NC1N=C(c2ccccc2)c2ccccc2NC1=O (stereo not drawn)

>  <units.text>
h

>  <Tmax>
2.6

$$$$

Next molecule, please.
Data request, read-out Tmax, for COc1ccccc1C(=O)NC1N=C(c2ccccc2)c2ccccc2NC1=O (stereo not drawn)
0.8

* * *

- measurement.protocol: Volume of distribution in Sprague-Dawley rat at 2 mg/kg, iv
- Type: ADME, organism-based
- Parameters: dose 2 mg/kg, route intravenous
- condition.context: in vivo, read-out: Vdss
readout.type: Vd
Kindly write the number and append the unit.

Known results for compounds:
>  <compound>
CC(=O)NC1N=C(c2ccccc2)c2ccccc2NC1=O (stereo not drawn)

>  <Vd>
2.2 L/kg

$$$$
>  <compound>
O=C(Nc1ccccc1F)NC1N=C(c2ccccc2)c2ccccc2NC1=O (stereo not drawn)

>  <Vd>
2.5 L/kg

$$$$

Endpoint output: Vd of COc1ccccc1C(=O)NC1N=C(c2ccccc2)c2ccccc2NC1=O (stereo not drawn) . Value?
2.4 L/kg

* * *

Listing of recorded pIC50 by entry.
- Tested on: Respiratory syncytial virus
- measurement.protocol: Antiviral activity against RSV Long in Hep2 cells by plaque assay
- Type: functional, organism-based
- condition.context: human respiratory syncytial virus, HEp-2
Lab note — pIC50 values are minus log10 of concentrations in M.

>  <molecule>
COc1cc([N+](=O)[O-])ccc1C(=O)NC1N=C(c2ccccc2)c2ccccc2NC1=O (stereo not drawn)

>  <experimental.system>
Respiratory syncytial virus

>  <pIC50>
6.05

$$$$
>  <molecule>
CC(=O)NC1N=C(c2ccccc2)c2ccccc2NC1=O (stereo not drawn)

>  <experimental.system>
Respiratory syncytial virus

>  <pIC50>
5.14

$$$$

Then there is this molecule:
What does the record list as pIC50 for O=C(Nc1ccccc1F)NC1N=C(c2ccccc2)c2ccccc2NC1=O (stereo not drawn) ?
5.66
